molecular target: Ba/F3-FGFR1-transfected cells (Homo sapiens); assay: Ba/F3-FGFR1 (minus IL3) cellular proliferation assay, Alamar Blue; type: cell-based; details: minus IL3, 96 well
Sequence (P11362 whole entry, change not shown): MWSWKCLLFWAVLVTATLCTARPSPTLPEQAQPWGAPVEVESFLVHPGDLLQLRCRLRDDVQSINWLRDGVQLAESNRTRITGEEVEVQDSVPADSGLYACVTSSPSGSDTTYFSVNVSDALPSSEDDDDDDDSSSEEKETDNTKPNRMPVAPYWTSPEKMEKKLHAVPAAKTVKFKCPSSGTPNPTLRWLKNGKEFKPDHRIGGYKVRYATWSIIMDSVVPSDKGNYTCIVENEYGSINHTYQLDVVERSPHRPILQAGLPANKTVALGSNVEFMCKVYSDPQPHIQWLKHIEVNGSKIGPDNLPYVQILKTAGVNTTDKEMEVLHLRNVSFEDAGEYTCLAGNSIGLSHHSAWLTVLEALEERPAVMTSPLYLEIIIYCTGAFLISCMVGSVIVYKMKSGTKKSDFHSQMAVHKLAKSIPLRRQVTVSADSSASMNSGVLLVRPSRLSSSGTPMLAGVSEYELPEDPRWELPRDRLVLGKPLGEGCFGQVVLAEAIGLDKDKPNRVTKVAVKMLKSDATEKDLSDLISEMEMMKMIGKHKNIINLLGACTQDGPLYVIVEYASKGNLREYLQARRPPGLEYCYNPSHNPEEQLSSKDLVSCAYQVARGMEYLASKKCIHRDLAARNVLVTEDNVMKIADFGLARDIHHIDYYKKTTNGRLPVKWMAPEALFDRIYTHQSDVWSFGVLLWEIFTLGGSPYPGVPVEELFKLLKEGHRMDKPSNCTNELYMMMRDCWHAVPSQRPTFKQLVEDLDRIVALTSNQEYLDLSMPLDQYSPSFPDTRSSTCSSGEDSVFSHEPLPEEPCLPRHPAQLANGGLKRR
QUANTITY: BAF3-FGFR 1 (MIN IL3) 96 well pIC50

structure_notation=COc1cc(OC)cc(N(CC2CC2)c2ccc3ncc(-c4nnnn4C)nc3c2)c1 readout_value=<5
structure_notation=COc1cc(OC)cc(N(CC2CC2)c2ccc3ncc(-c4cn[nH]n4)nc3c2)c1 readout_value=5.22
structure_notation=COc1cc(OC)cc(N(CC2CC2)c2ccc3ncc(-c4cnnn4C)nc3c2)c1 readout_value=5.23
structure_notation=COc1cc(OC)cc(N(CC2CC2)c2ccc3ncc(-c4nnn(C)n4)nc3c2)c1 readout_value=5.03
structure_notation=COc1cc(OC)cc(N(CC2CC2)c2ccc3ncc(-c4cccc(N5CCOCC5)c4)nc3c2)c1 readout_value=<5

Qu. Requested read-out: BAF3-FGFR 1 (MIN IL3) 96 well pIC50. Entry: COc1cc(OC)cc(N(CC2CC2)c2ccc3ncc(-c4ccn[nH]4)nc3c2)c1
Ans. <5

Qu. // BAF3-FGFR 1 (MIN IL3) 96 well pIC50 lookup, key: COc1cc(OC)cc(N(CC2CC2)c2ccc3ncc(-c4cccn4C)nc3c2)c1
Ans. <5

Qu. Query (compound): COc1cc(OC)cc(N(CC2CC2)c2ccc3ncc(C(=O)NCc4ccc(F)cc4)nc3c2)c1 ; field requested: BAF3-FGFR 1 (MIN IL3) 96 well pIC50
Ans. <5

###

Parameter: BAF3-FGFR4 pIC50. Scope: all listed entries.
biological target: Ba/F3-FGFR4-transfected cells (Homo sapiens); assay: Ba/F3-FGFR4 cellular proliferation assay, Alamar Blue; type: cell-based
Sequence (P22455 whole entry, change not shown): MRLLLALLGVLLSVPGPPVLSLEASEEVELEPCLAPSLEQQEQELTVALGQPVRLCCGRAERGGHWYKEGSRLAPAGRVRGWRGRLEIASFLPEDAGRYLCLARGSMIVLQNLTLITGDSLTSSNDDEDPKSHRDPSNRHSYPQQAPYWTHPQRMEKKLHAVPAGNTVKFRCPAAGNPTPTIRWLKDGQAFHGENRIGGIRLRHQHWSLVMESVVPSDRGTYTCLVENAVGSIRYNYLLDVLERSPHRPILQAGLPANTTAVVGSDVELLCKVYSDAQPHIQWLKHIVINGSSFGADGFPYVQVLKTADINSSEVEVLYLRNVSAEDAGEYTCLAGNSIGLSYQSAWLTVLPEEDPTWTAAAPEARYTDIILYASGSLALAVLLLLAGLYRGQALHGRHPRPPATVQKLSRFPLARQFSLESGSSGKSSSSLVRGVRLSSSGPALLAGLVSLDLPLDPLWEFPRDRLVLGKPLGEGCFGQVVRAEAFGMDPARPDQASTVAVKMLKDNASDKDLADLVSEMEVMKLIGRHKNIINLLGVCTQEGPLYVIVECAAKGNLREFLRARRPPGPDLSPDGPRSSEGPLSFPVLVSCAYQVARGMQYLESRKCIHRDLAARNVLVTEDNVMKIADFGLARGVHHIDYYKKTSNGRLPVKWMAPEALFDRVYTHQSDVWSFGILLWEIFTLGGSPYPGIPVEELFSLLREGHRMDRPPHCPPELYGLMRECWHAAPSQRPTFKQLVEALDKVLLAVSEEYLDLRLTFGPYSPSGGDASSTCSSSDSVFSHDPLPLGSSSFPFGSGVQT

Reference set (5 entries):
molecule=COc1cc(OC)cc(N(CC2CC2)c2ccc3ncc(-c4nccn4C)nc3c2)c1 study_target="Ba/F3-FGFR4-transfected cells (Homo sapiens)" readout_value=<5
molecule=COc1cc(OC)cc(N(CC2CC2)c2ccc3ncc(-c4nnnn4C)nc3c2)c1 study_target="Ba/F3-FGFR4-transfected cells (Homo sapiens)" readout_value=<5
molecule=COc1cc(OC)cc(N(CCCNCC(F)(F)F)c2ccc3ncc(-c4ccn(C)c4)nc3c2)c1 study_target="Ba/F3-FGFR4-transfected cells (Homo sapiens)" readout_value=5.7
molecule=COc1cc(OC)cc(N(CCNC(C)C)c2ccc3ncc(C(=O)N4CCCCC4)nc3c2)c1 study_target="Ba/F3-FGFR4-transfected cells (Homo sapiens)" readout_value=5.2
molecule="COC(=O)C1CCCN1c1cnc2ccc(N(CCO)c3cc(OC)cc(OC)c3)cc2n1 (stereo not shown)" study_target="Ba/F3-FGFR4-transfected cells (Homo sapiens)" readout_value=5.1

Qu. Which BAF3-FGFR4 pIC50 value belongs to CNc1ccc(-c2cnc3ccc(N(CCCO)c4cc(OC)cc(OC)c4)cc3n2)cn1 ?
Ans. 6.4

Qu. What does the record list as BAF3-FGFR4 pIC50 for COc1cc(OC)cc(N(CC2CC2)c2ccc3ncc(-c4cn(CCN5CCOCC5)nn4)nc3c2)c1 ?
Ans. ~5.1

Qu. Look at this molecule and give its reported BAF3-FGFR4 pIC50. COc1cc(OC)cc(N(CCNC(C)C)c2ccc3ncc(-c4ccnn4C4CCCCO4)nc3c2)c1 (stereo not shown)
Ans. 6.05

Qu. Look up BAF3-FGFR4 pIC50 for this molecule: CNC(=O)c1cc(-c2cnc3ccc(N(CCN4CCCC4=O)c4cc(OC)cc(OC)c4)cc3n2)ccn1
Ans. <5

Qu. # query: BAF3-FGFR4 pIC50 of entry COc1cc(OC)cc(N(CC2CC2)c2ccc3ncc(C#Cc4ccncc4)nc3c2)c1
Ans. <5

###

target: FGFR2 (h) (Homo sapiens); test: FGFR2 (enzymatic assay), TR-FRET; type: biochemical; settings: read-out: FGFR 2 pIC50 (converted)
Sequence (P21802 22-821): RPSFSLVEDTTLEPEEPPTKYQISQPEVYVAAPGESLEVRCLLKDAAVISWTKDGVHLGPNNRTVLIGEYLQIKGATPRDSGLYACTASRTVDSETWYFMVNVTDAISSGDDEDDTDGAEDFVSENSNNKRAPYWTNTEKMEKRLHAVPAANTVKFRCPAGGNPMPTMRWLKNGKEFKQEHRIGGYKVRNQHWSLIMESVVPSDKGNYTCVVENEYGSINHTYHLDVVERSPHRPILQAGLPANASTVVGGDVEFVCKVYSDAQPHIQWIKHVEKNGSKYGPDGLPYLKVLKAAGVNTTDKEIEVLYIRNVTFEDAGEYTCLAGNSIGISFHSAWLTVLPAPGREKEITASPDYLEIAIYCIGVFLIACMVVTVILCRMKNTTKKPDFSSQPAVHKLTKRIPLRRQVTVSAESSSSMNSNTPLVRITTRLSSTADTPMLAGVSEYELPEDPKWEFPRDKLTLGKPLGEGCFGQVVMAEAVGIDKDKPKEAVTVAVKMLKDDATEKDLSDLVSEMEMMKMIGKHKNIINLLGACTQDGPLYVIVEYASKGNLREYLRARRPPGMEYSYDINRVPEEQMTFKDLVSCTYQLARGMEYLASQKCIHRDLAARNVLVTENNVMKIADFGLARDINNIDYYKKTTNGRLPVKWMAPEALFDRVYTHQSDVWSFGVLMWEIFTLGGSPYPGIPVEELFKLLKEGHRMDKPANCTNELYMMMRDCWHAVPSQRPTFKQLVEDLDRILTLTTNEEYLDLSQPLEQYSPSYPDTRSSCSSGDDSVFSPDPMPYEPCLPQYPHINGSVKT
QUANTITY: IC50 (nM)

a. CNc1ccc(-c2cnc3ccc(N(CCCNCC(F)(F)F)c4cc(OC)cc(OC)c4)cc3n2)cn1 [Compound 129]
b. COc1cc(OC)cc(N(CC2CC2)c2ccc3ncc(-c4cn(CCO)nn4)nc3c2)c1 [Compound 40]
c. COc1cc(OC)cc(N(CCNC(C)C)c2ccc3ncc(N4CCC(CN)CC4)nc3c2)c1 [Compound 67]
d. COc1cc(OC)cc(N(CCO)c2ccc3ncc(-c4ccc(N5CCN(C)CC5)nc4)nc3c2)c1 [Compound 163]
Qu. Order by IC50, ascending. Reply with the labels, ordered as the question asks.
Ans. c, d, a, b
(c: 6.31 nM, d: 15.8 nM, a: 37.2 nM, b: 89.1 nM)

###

biological target: FGFR2 (h) (Homo sapiens); test: FGFR2 (enzymatic assay), TR-FRET; type: biochemical; conditions: read-out: FGFR 2 pIC50 (converted)
QUANTITY: IC50 (nM)

Example results:
compound=COc1cc(OC)cc(N(CC2CC2)c2ccc3ncc(-c4ccc5c(c4)OCO5)nc3c2)c1 unit_descriptor=nM readout_value=955
compound=COc1cc(OC)cc(N(CCCNC(C)C)c2ccc3ncc(-c4ccnc(NC(=O)NC(C)C)c4)nc3c2)c1 unit_descriptor=nM readout_value=4.68
compound="COc1cc(OC)cc(N(CC(O)CO)c2ccc3ncc(-c4ccc(N)nc4)nc3c2)c1 (centres unmarked)" unit_descriptor=nM readout_value=11.5

a. COc1cc(OC)cc(N(CC2CC2)c2ccc3ncc(-c4ccnc(N5CCN(C)CC5)c4)nc3c2)c1
b. COc1cc(OC)cc(N(CCNC(C)C)c2ccc3ncc(-c4cccnc4)nc3c2)c1
Qu. Thinking about recorded IC50 values, which is higher, a or b ? Lab note: record the label of whichever item you select.
Ans. a

a. COc1cc(OC)cc(N(CC2CC2)c2ccc3ncc(-c4c[nH]cn4)nc3c2)c1
b. COc1cc(OC)cc(N(CCCNCC(F)(F)F)c2ccc3ncc(-c4cnc(OC)nc4)nc3c2)c1
c. COc1cc(OC)cc(N(CCNC(C)C)c2ccc3ncc(-c4ccn(C)c4)nc3c2)c1
d. COc1cc(OC)cc(N(CC2CC2)c2ccc3ncc(Nc4nccs4)nc3c2)c1
Qu. Kindly order the items shown according to IC50, from the highest value down. To answer, arrange all of the labels according to the requested order.
Ans. d, b, a, c
(d: 676 nM, b: 138 nM, a: 81.3 nM, c: 2.63 nM)

P. COc1cc(OC)cc(N(CC2CC2)c2ccc3ncc(-c4nnn[nH]4)nc3c2)c1
Q. COc1cc(OC)cc(N(CCNC(C)C)c2ccc3ncc(-c4ccc(N)nc4)nc3c2)c1
Qu. I would appreciate it if you could say which entry, P or Q , has the lower IC50 value. Reply briefly: the label of your chosen item.
Ans. Q

P. COC(=O)C1CCCN1c1cnc2ccc(N(CCO)c3cc(OC)cc(OC)c3)cc2n1 (centres unmarked)
Q. CNC(=O)c1cc(-c2cnc3ccc(N(CCN4CCCC4=O)c4cc(OC)cc(OC)c4)cc3n2)ccn1
Qu. Lab note: check whether P or Q shows the higher recorded IC50. Kindly give the label for the entry you pick.
Ans. Q

###

biological target: FGFR4 (h) (Homo sapiens); assay: FGFR4 (enzymatic assay), TR-FRET; assay type: biochemical; conditions: read-out: FGFR 4 pIC50 (converted)
Sequence (P22455 22-802): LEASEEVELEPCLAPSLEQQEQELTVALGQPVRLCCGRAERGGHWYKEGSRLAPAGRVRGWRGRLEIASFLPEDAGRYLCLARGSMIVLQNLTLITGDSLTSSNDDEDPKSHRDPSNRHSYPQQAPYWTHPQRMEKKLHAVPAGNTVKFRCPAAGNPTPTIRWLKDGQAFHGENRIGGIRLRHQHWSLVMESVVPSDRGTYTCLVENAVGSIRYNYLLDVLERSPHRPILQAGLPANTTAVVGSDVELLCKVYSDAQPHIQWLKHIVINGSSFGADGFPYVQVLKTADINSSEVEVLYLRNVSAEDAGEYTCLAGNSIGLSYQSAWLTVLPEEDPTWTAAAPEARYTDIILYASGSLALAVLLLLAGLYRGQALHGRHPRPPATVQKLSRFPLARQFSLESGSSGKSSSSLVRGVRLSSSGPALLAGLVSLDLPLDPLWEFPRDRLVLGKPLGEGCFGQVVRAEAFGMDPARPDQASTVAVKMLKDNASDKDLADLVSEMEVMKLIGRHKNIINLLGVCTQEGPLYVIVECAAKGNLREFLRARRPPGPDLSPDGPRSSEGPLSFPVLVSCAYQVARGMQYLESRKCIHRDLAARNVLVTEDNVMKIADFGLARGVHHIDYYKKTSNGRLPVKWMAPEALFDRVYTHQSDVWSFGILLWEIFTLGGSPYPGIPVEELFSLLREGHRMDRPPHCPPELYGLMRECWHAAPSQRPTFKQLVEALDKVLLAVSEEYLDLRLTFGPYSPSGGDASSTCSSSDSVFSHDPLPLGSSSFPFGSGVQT
QUANTITY: IC50 (µM)

Examples with their reported IC50 follow.
structure_notation=COc1cc(OC)cc(N(CCCO)c2ccc3ncc(-c4ccc(N5CCNCC5)nc4)nc3c2)c1 study_target="FGFR4 (h) (Homo sapiens)" readout_value=0.0155
structure_notation=COc1cc(OC)cc(N(CCO)c2ccc3ncc(-c4ccc(N)nc4)nc3c2)c1 study_target="FGFR4 (h) (Homo sapiens)" readout_value=0.0195
structure_notation=COc1cc(OC)cc(N(CCCO)c2ccc3ncc(-c4ccc(N5CCOCC5)nc4)nc3c2)c1 study_target="FGFR4 (h) (Homo sapiens)" readout_value=0.0331
structure_notation=COc1cc(OC)cc(N(CC2CC2)c2ccc3ncc(-c4ccn[nH]4)nc3c2)c1 study_target="FGFR4 (h) (Homo sapiens)" readout_value=0.55

I. COc1cc(OC)cc(N(CC2CC2)c2ccc3ncc(-c4cn[nH]n4)nc3c2)c1
II. COc1cc(OC)cc(N(CCCO)c2ccc3ncc(-c4ccnc(C(=O)NCCOCCO)c4)nc3c2)c1
Qu. Out of I and II , name the one with the higher IC50. I would appreciate it if you answered with the label of your choice.
Ans. I
(I: 0.251 µM, II: 0.126 µM)

###

Below: a set of entries, each annotated with reported BAF3-KDR (MIN IL3) 96 well pIC50.
molecular target: Ba/F3-KDR-transfected cells (Homo sapiens, UniProt P35968); test: Ba/F3-KDR (minus IL3) cellular proliferation assay, Alamar Blue; assay type: cell-based; details: minus IL3
Sequence (P35968 whole entry, change not shown): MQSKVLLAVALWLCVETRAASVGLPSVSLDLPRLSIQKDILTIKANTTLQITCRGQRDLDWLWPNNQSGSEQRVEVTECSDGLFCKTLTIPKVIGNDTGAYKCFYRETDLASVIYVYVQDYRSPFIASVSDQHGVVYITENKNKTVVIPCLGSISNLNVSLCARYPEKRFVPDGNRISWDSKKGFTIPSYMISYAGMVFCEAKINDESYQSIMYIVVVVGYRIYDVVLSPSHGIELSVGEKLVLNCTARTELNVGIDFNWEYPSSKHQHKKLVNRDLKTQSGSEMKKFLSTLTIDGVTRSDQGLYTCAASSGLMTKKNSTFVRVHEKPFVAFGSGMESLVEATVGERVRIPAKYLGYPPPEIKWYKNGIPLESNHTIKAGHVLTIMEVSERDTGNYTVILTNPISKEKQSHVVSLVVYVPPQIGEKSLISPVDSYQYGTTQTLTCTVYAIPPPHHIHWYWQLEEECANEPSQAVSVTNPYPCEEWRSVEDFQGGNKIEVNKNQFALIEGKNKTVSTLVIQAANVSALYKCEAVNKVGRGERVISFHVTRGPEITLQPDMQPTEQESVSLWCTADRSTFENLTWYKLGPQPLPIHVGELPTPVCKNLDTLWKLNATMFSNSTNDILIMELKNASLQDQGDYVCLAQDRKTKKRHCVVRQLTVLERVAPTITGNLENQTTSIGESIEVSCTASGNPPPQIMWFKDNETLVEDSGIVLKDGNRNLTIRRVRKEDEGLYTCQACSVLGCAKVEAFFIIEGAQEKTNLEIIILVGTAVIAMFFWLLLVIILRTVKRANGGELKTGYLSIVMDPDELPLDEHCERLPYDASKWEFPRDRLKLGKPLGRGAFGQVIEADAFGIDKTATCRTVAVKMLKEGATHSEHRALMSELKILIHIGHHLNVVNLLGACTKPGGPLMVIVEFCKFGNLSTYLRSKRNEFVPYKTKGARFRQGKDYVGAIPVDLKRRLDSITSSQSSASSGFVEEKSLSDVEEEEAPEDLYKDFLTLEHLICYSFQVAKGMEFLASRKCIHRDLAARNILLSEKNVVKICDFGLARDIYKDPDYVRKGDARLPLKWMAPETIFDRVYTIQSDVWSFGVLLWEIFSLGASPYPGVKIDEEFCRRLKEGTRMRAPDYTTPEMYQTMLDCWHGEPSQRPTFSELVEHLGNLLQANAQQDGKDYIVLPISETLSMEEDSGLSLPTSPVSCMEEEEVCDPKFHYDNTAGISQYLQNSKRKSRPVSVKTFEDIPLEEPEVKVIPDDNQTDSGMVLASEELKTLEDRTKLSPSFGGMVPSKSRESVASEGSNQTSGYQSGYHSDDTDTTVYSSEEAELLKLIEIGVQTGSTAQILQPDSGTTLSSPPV

Qu. For the compound shown here, COc1cc(OC)cc(N(CC2CC2)c2ccc3ncc(-n4cnc(C)c4)nc3c2)c1 , give the reported BAF3-KDR (MIN IL3) 96 well pIC50.
Ans. 5.11

Attribution: patent US10052320B2
